Sourced from patent US11285156B2

Task for the reader: assign each of the following compounds its reported IC50.
Molecular target: GDP-bound KRAS protein (aa 1-169), containing both G12C and C118A amino acid substitutions (Homo sapiens (Human), UniProt P01116, C118A/G12C)
Sequence (P01116 other isoform, or with tags, fused parts or gaps G12C/C118A): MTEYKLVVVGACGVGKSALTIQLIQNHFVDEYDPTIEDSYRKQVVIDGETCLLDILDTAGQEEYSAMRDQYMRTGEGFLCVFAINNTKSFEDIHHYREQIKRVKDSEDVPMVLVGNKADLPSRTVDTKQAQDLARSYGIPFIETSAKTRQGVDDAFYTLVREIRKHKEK
Test: Coupled nucleotide exchange assay (SOS-mediated nucleotide exchange, AlphaScreen)
Type: biochemical
Settings: read-out: Coupled exchange IC50 (5 min; μM); 5 min compound pre-incubation
All answers are understood in µM, so give the number only.

Short answer for C=CC(=O)N1C[C@H](C)N(c2nc(=O)n(-c3c(C)ccnc3C(C)C)c3nc(-c4ccccc4F)c(Cl)nc23)C[C@H]1C (single isomer, unassigned) [Example 106-6-2] : IC50 was 0.059

Short answer for C=CC(=O)N1C[C@H](C)N(c2nc(=O)n(-c3c(C)ccnc3C(C)C)c3nc(-c4cccc(C#CC)c4)c(Cl)cc23)C[C@H]1C (atropisomer, axis not shown; (M)) : IC50 was 0.123

Short answer for C=CC(=O)N1C[C@H](C)N(c2nc(=O)n(-c3c(C)ccnc3C(C)C)c3nc(-c4ccccc4)c(Cl)cc23)C[C@H]1C (atropisomer, axis not shown; (M)) : IC50 was 0.117

Short answer for C=CC(=O)N1CCN(c2nc(=O)n(-c3c(C)ccnc3C(C)C)c3nc(-c4ccccc4F)c(Cl)cc23)CC1CC#N (atropisomer, axis not shown; (M)) [Example 145-2-2] : IC50 was 0.238

Short answer for C=CC(=O)N1[C@H](C)CN(c2nc(=O)n(-c3c(C)cc(N)nc3C(C)C)c3nc(-c4c(N)cccc4F)c(F)cc23)C[C@@H]1C (single isomer, unassigned) [Example 123-6] : IC50 was 0.231
